Data provenance: patent US20230049752A1

FACS fluorescence for assorted binders
SYSTEM: T1, mouse Claudin-6 (CLDN6) (mouse, UniProt Q9Z262 1-219)
T1 construct: whole, on cells; GFP fusion on engineered HEK293T cells; also called Mouse CLDN6; murine CLDN6
T1 sequence (looked up): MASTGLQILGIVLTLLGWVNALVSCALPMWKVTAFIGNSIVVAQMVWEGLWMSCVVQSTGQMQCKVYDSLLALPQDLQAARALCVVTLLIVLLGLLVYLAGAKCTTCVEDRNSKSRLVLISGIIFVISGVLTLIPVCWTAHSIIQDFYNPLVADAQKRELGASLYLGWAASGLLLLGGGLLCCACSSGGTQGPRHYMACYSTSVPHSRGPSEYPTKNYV
MEASUREMENT_DESCRIPTION: FACS, 293T clone expressing mouse CLDN6, dose not stated (2nd Ab only 1061.72)

# BINDER, FACS fluorescence
records = [
    ("AB3-2 (antibody, V domains shown, humanized) VH: EVQLLESGGGLVQPGGSMRLSCAASGFTFSNYWMNWVRQAPGKGLEWVAQIRLKSDNYATHYADSVKGRFTISRDDSKNTVYLQMNSLRAEDTGVYYCNDGPPSGCWGQGTLLTVSS VL: DIQMTQSPSSLSASVGDRVTITCRISENIYSYLAWYQQKPGKAPKLLIYNAKILVEGVPSRFSGSGSGTDFTLTISSLQPEDFATYYCQHHYTVPWTFGQGTKLEIK", 31700),
    ("AB1-3 (antibody, V domains shown, humanized) VH: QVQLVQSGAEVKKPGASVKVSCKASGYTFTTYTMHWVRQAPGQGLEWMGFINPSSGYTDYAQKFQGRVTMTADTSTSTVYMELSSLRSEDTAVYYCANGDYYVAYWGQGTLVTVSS VL: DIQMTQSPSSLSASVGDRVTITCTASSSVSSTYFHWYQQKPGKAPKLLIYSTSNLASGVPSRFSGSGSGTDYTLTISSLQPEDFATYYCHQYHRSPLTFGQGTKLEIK", 89300),
]
